# System: Rhizoctonia solani
# assay.info: Example F rice sheath blight
# Format: in vivo
# condition.details: Rhizoctonia solani, 144 h, 100 PPM; read-out: disease control rating, Ex. F
Parameter class (string): assigned from measured pest or weed control at 100 ppm. Ranges: small value: < 50%; mid value: ≥ 50% and < 80%; large value: ≥ 80%

Solved cases (5 shown):
C=C(CN(C)C)C(O)(Cn1cncn1)c1ccc(F)cc1 (stereo not drawn) [Example 454]
small value
C=C(c1ccc(F)cc1)C(O)(Cn1cncn1)c1ccc(F)cc1 (stereo not drawn) [Example 1]
large value
C=C(c1ccc(F)cc1)C(O)(Cn1ncnc1I)c1ccc(F)cc1F (stereo not drawn) [Example 1381]
mid value
C=C(c1ccc(Cl)cc1)C(O)(Cn1cncn1)c1ccc(Cl)c(Cl)c1 (stereo not drawn) [Example 675]
mid value
C=C(c1ccc(Cl)cc1)C(O)(Cn1cncn1)c1ccccc1F (stereo not drawn) [Example 669]
large value

Request: Class label required: C=C(c1ccc(F)cc1)C(O)(Cn1cncn1)c1ccc(OC)cc1 (stereo not drawn) [Example 663]
Response: small value

Request: # bin lookup: classify C=C(c1ccc(C(F)(F)F)cc1)C(O)(Cn1cncn1)c1ccc(Cl)cc1 (stereo not drawn) [Example 67] by its pest or weed control at 100 ppm
Response: mid value
